tested on: Mono-Mac-6; conditions: 72 h
Observed property: IC50 (cell viability)

I'd like to know its IC50 (cell viability). The molecule in question is C=C1C(=O)O[C@H](CCCCCCCC)[C@H]1C(=O)O
> 10 µM

Try this molecule next: CC(C)(CS(=O)(=O)[O-])NC(=O)CC[N+](C)(C)CCO
> 10 µM

Next molecule: COc1ccc2c(c1)c(CC(=O)O)c(C)n2C(=O)c1ccc(Cl)cc1
> 10 µM

CN(C)C(=N)NC(=N)N , same question.
> 10 µM

Subsequent entry: C[C@H]1O[C@H](O[C@H]2[C@H](O)[C@@H](O)[C@@H](O[C@H]3[C@H](O)[C@@H](O)C(O)O[C@@H]3CO)O[C@@H]2CO)[C@H](O)[C@@H](O)[C@@H]1N[C@H]1C=C(CO)[C@@H](O)[C@H](O)[C@H]1O (mixture of isomers)
> 10 µM

// same read-out, input: c1ccc2nc(-c3nnc4sc(-c5cnccn5)nn34)ccc2c1
> 10 µM

What about Nc1nc(O)c2c(CCc3ccc(C(=O)N[C@@H](CCC(=O)O)C(=O)O)cc3)c[nH]c2n1 ?
0.312 µM

Same for Cn1cc(C[C@@H](N)C(=O)O)c2ccccc21
> 10 µM

And O=C(Cc1cccc(OC(F)(F)F)c1)Nc1ccc(CCCCc2nnc(NC(=O)Cc3ccccn3)s2)nn1 ?
> 10 µM

Field entry: O[C@H]1[C@H](O)[C@@H](O)CN2CC[C@H](O)[C@H]12
> 10 µM

Please do the same for CCCCC/C=C\C/C=C\C/C=C\C/C=C\CCCC(=O)C(F)(F)F as well.
7.99 µM

How about O=[As]O[As]=O (configuration not stated) [Arsenic trioxide] ?
8.74 µM

###

Give cell viability for every item shown.
tested on: myeloid leukemia patient primary cells Pat.3; assay: cell viability (% survival relative to DMSO control); higher = less cytotoxic; conditions: 1 nM; 72 h

Could you tell me which cell viability is on file for Nc1nc(O)c2c(CCc3ccc(C(=O)N[C@@H](CCC(=O)O)C(=O)O)cc3)c[nH]c2n1 ?
> 100%

Also check Clc1cc(Cl)c(OCC#CI)cc1Cl
> 100%

Try the compound O=C(c1c2ccccc2cc2ccccc12)N1CCC(N2CCC[C@@H](C(=O)N3CCOCC3)C2)CC1
> 100%

###

For each entry below, report its area under dose-response curve value.
tested on: myeloid leukemia patient primary cells Pat.11; assay: area under dose-response curve (viability, 1 nM-10 uM) (fraction (0-1)); higher = more sensitive; settings: 72 h

Using the record for O=C(c1c2ccccc2cc2ccccc12)N1CCC(N2CCC[C@@H](C(=O)N3CCOCC3)C2)CC1 , report its area under dose-response curve.
< 0.0301

Next compound up: Oc1ncc(F)c(O)n1
< 0.0301

// repeat for Cc1nnc(-c2ccc(N3CCC(Oc4ccccc4C(F)(F)F)CC3)nn2)s1 and report
< 0.0301

Try CCn1c(=O)/c(=C2\Sc3ccccc3N2C)s/c1=C\c1cccc[n+]1CC.[Cl-] next.
< 0.0301

Same question for O=C(Cc1cccc(OC(F)(F)F)c1)Nc1ccc(CCCCc2nnc(NC(=O)Cc3ccccn3)s2)nn1 please.
< 0.0301

###

tested on: MOLM-13; test: cell viability (% survival relative to DMSO control, bortezomib = 0%); higher = less cytotoxic; conditions: 10 nM; 72 h
Kindly supply the reported cell viability values for the records listed here.
Please respond with the number in % and leave the unit unwritten.

Which value of cell viability has been reported for O=c1oc2c(cc1O)oc(=O)c1cc(O)c(O)c(O)c12 in the records?
120

And then COc1ccc2c(c1)c(CC(=O)O)c(C)n2C(=O)c1ccc(Cl)cc1 , what is it?
93.7

Likewise for OC[C@H]1N[C@@H](c2c[nH]c3c(O)ncnc23)[C@H](O)[C@@H]1O ?
89.2

Try O=C(Cc1cccc(OC(F)(F)F)c1)Nc1ccc(CCCCc2nnc(NC(=O)Cc3ccccn3)s2)nn1 next.
102

Now this one: O=C(/C=C/c1cccnc1)NCCCCC1CCN(C(=O)c2ccccc2)CC1
15.7

# iterate: O=C(c1c2ccccc2cc2ccccc12)N1CCC(N2CCC[C@@H](C(=O)N3CCOCC3)C2)CC1
103

And then Nc1ccn([C@@H]2O[C@H](CO)[C@@H](O)C2(F)F)c(=O)n1 , what is it?
2.43

Check CCCCC/C=C\C/C=C\C/C=C\C/C=C\CCCC(=O)C(F)(F)F too.
74

Would you kindly repeat that for Cl.OC[C@H]1NC[C@H](O)[C@@H](O)[C@H]1O ?
89.2

Likewise for COc1cc(/C=C/c2ccc(OC)cc2OC)cc(OC)c1 ?
105

What do you get for O=[As]O[As]=O (stereo unspecified) [Arsenic trioxide] ?
104

Origin of the recorded values: the supplement of paper PMC8671470
